# System: 786-0
# ASSAY DETAILS: NCI tumour cell line growth inhibition, 48 h
Active and inactive are the calls of the source. Cut-off read from the data, not from the text of the source: active = GI50 up to about 1.1 µM and inactive = higher.
MEASUREMENT TYPE: GI50

>>> result("CCN(CC)C(=S)N/N=C/c1cc(OC)ccc1O")
"2.75 µM (inactive)"
>>> result("CN(c1ccccc1Cl)S(=O)(=O)c1ccc([N+](=O)[O-])cc1")
"> 100 µM (inactive)"
>>> result("COc1cc(/C=C2\\CC3C4CC=C5C[C@@H](O)CC[C@]5(C)C4CC[C@]3(C)\\C2=N\\O)cc(OC)c1OC (stereo not given in full)")
"4.66 µM (inactive)"
>>> result("COC(=O)C1(C)CCC(c2ccc(C)cc2)=C(CC(=O)O)C1 (stereo not given)")
"> 100 µM (inactive)"
>>> result("CN(C)c1n/c(=N/Cc2ccco2)ss1")
"3.65 µM (inactive)"

Problem: Answer briefly: GI50 recorded on 786-0 for Clc1ccc(Nc2ncco2)cc1Cl
Solution: > 10 µM (inactive)

Problem: Return reported GI50 for target or system 786-0, item CCO/C([O-])=C(\C(=O)c1ccc([N+](=O)[O-])cc1)[n+]1c(C)n(C)c2ccccc21 .
Solution: > 100 µM (inactive)

Problem: Enter recorded GI50 with 786-0 for Cn1nc2ccc([N+](=O)[O-])cc2[n+]1[O-] here.
Solution: > 100 µM (inactive)

Problem: Param request: GI50 | system 786-0 | item COC(=O)C1=CC(=O)OC1(OO)c1ccccc1 (stereo not given)
Solution: 35.6 µM (inactive)

Problem: Answer briefly: GI50 recorded on 786-0 for CCOC(=O)c1cnc2[nH]ccn2c1=O
Solution: > 10 µM (inactive)

Problem: Quote 786-0 GI50 for entry O=c1[nH]cc(COCCCO)c(=O)[nH]1 .
Solution: > 100 µM (inactive)

Problem: Report the value of GI50 obtained on 786-0 for CC(C)C(Nc1ncnc2nc[nH]c12)C(=O)O (stereo not given) .
Solution: > 100 µM (inactive)

Problem: Give reported GI50 for N=C(N)NS(=O)(=O)c1ccc(NC(=O)c2ccc3nc4ccccc4c(O)c3c2)cc1 (786-0)
Solution: > 100 µM (inactive)

Problem: For 786-0, give the measured GI50 of the entry O=C(NCCc1ccccc1)c1c(O)nc2ccccc2c1O
Solution: > 100 µM (inactive)

Problem: Report GI50 under test system 786-0 for CCOc1ccc(/N=C/c2ccnc3ccccc23)cc1 .
Solution: 57.1 µM (inactive)

----------
GI50 reference
# Test system: HOP-62
# ASSAY DETAILS: NCI tumour cell line growth inhibition, 48 h
The source made the active and inactive calls. Cut-off read from the data, not from the text of the source: active = GI50 up to about 1.1 µM and inactive = higher.

Below, 4 compounds whose answers are already recorded.
>>> result("O=[N+]([O-])c1cccc(C2=NN(c3ccccc3)C[N+](c3ccc(Br)cc3)=N2)c1")
"> 100 µM (inactive)"
>>> result("O=C(O)[C@H]1NC[C@H]2C(Br)=NO[C@@H]12")
"> 100 µM (inactive)"
>>> result("CC1=C(/C=C/C(C)=C/C=C/C(C)=C/C(=O)OC2CC(n3cc(F)c(=O)[nH]c3=O)OC2CO)C(C)(C)CCC1 (stereo not given)")
"0.158 µM (active)"
>>> result("C=C(c1nc2ccc(Cl)cc2[nH]c1=O)C(O)c1ccc(C(O)C(=O)c2nc3ccc(Cl)cc3[nH]c2=O)cc1 (stereo not given)")
"> 100 µM (inactive)"

Could you now look at the following compound, please?
Problem: State, in one line, measured GI50 of COC(=O)C(Cc1ccccc1)NC(=O)C(CCC(=O)OCc1ccccc1)NC(=O)OC(C)(C)C (stereo not given)
Solution: > 100 µM (inactive)
